# Target of assay: PD-1/PD-L1 (Homo sapiens)
# Sequence (Q9NZQ7 19-238 limits assumed): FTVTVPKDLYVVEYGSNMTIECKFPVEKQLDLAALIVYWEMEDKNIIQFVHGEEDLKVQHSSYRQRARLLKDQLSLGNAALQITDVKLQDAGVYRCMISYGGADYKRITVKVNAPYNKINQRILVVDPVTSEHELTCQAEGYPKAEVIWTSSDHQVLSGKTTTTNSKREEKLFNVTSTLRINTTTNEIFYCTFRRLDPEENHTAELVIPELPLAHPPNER
# Procedure summary: PD-1/PD-L1 biochemical protein-protein interaction assay (ALPHA)
# Study conditions: 0.3 nM His tagged PD-L1, 2.5 nM biotinylated Fc-PD-1, 60 minutes at 25° C., read-out: IC50 PD-L1-PD-1 Alpha IC50-mono PD-L1-fcP-D1
Entries and their measured IC50 follow.
Measurement label: IC50 (nM)

1. COc1nc(OCc2cccc(-c3cccc(COc4nc(OC)c(CNC[C@@H](O)CC(=O)O)cc4C#N)c3C)c2C)c(C#N)cc1CNC[C@@H](O)CC(=O)O [Example 243]
0.2
2. COc1cc(-c2cccc(-c3cccc(COc4cc(OCc5cncc(C#N)c5)c(CN[C@@](C)(CO)C(=O)O)cc4Cl)c3C)c2C)ccc1CN [Example 506]
0.239
3. C[C@@](CO)(NCc1cc(Cl)c(O[C@H]2CCc3c(-c4cccc5c4CC[C@@H]5Oc4nc(OCc5cc(C#N)cc(C#N)c5)c(CN[C@@](C)(CO)C(=O)O)cc4Cl)cccc32)nc1OCc1cc(C#N)cc(C#N)c1)C(=O)O [Example 686]
0.282
4. Cc1c(COc2cc(OCc3cncc(C#N)c3)c(CNC[C@@H](O)CC(=O)O)cc2Cl)cccc1-c1cccc(-c2ccc(CNC[C@@H]3CCC(=O)N3)cc2)c1C [Example 574]
0.071
5. Cc1c(COc2cc(OCc3cncc(C#N)c3)c(CNCCO)cc2Cl)cccc1-c1cccc(COc2cc(OCc3cncc(C#N)c3)c(CNCCO)cc2Cl)c1Br [Example 480]
1.12
